Where do the numbers come from? From the NIST ThermoML archive (doi:10.1016/j.fluid.2018.11.011).

Here the recorded activity coefficient is given for each entry.
Assay: activity coefficient (dimensionless); of the first substance listed, at infinite dilution; xn = mol fraction of the nth substance listed
Conditions: 338 K; 101.33 kPa; Liquid; Chromatography; x1 = 0

Compound	activity coefficient
CCCCCC [hexane] + CCCCCCCCCC[N+](C)(C)CCCCCCCCCC.F[B-](F)(F)F	2.3
CCCCC [pentane] + CCCCCCCCCC[N+](C)(C)CCCCCCCCCC.F[B-](F)(F)F	1.24
CCCCCCC [heptane] + CCCCCCCCCC[N+](C)(C)CCCCCCCCCC.F[B-](F)(F)F	2.62
CO [methanol] + CCCCCCCCCC[N+](C)(C)CCCCCCCCCC.[O-][Cl+3]([O-])([O-])[O-]	0.419
C=CCCC [1-pentene] + CCCCCCCCCC[N+](C)(C)CCCCCCCCCC.[O-][Cl+3]([O-])([O-])[O-]	1.37
CC#N [acetonitrile] + CCCCCCCCCC[N+](C)(C)CCCCCCCCCC.[O-][Cl+3]([O-])([O-])[O-]	0.511
C1CCOC1 [tetrahydrofuran] + CCCCCCCCCC[N+](C)(C)CCCCCCCCCC.F[B-](F)(F)F	0.619
CCCCCCCC [octane] + CCCCCCCCCC[N+](C)(C)CCCCCCCCCC.[O-][Cl+3]([O-])([O-])[O-]	3.42
CC(C)=O [acetone] + CCCCCCCCCC[N+](C)(C)CCCCCCCCCC.[O-][Cl+3]([O-])([O-])[O-]	0.537
C1CCCC1 [cyclopentane] + CCCCCCCCCC[N+](C)(C)CCCCCCCCCC.F[B-](F)(F)F	1.13
CCCCC [pentane] + CCCCCCCCCC[N+](C)(C)CCCCCCCCCC.[O-][Cl+3]([O-])([O-])[O-]	1.44
C=CCCCCC [1-heptene] + CCCCCCCCCC[N+](C)(C)CCCCCCCCCC.[O-][Cl+3]([O-])([O-])[O-]	2.23
C1CCOC1 [tetrahydrofuran] + CCCCCCCCCC[N+](C)(C)CCCCCCCCCC.[O-][Cl+3]([O-])([O-])[O-]	0.46
C1CCCCCC1 [cycloheptane] + CCCCCCCCCC[N+](C)(C)CCCCCCCCCC.[O-][Cl+3]([O-])([O-])[O-]	1.91
CCO [ethanol] + CCCCCCCCCC[N+](C)(C)CCCCCCCCCC.F[B-](F)(F)F	0.408
O=C1CCCCC1 [cyclohexanone] + CCCCCCCCCC[N+](C)(C)CCCCCCCCCC.[O-][Cl+3]([O-])([O-])[O-]	9.68
CCOCC [diethyl ether] + CCCCCCCCCC[N+](C)(C)CCCCCCCCCC.[O-][Cl+3]([O-])([O-])[O-]	0.848
C1CCCC1 [cyclopentane] + CCCCCCCCCC[N+](C)(C)CCCCCCCCCC.[O-][Cl+3]([O-])([O-])[O-]	1.26
C1CCCCCC1 [cycloheptane] + CCCCCCCCCC[N+](C)(C)CCCCCCCCCC.F[B-](F)(F)F	1.57
CC#N [acetonitrile] + CCCCCCCCCC[N+](C)(C)CCCCCCCCCC.F[B-](F)(F)F	1.06
C/C=C(\C)CC [(E)-3-methyl-2-pentene] + CCCCCCCCCC[N+](C)(C)CCCCCCCCCC.[O-][Cl+3]([O-])([O-])[O-]	1.49
CCCCCC [hexane] + CCCCCCCCCC[N+](C)(C)CCCCCCCCCC.[O-][Cl+3]([O-])([O-])[O-]	2.47
CC(C)O [propan-2-ol] + CCCCCCCCCC[N+](C)(C)CCCCCCCCCC.[O-][Cl+3]([O-])([O-])[O-]	1.54
CCCC [butane] + CCCCCCCCCC[N+](C)(C)CCCCCCCCCC.F[B-](F)(F)F	1.04
CCC(C)=O [butanone] + CCCCCCCCCC[N+](C)(C)CCCCCCCCCC.[O-][Cl+3]([O-])([O-])[O-]	0.59
